# credit: patent US20240216357A1

Please respond with reported IC50 for every item in the list.
Molecular target: LSD1 (Homo sapiens (Human))
Experiment: LSD1 enzyme activity detection (HTRF)
Assay type: biochemical
Details: HTRF, H3K4me1 substrate; read-out: Inhibition of enzymatic activity of LSD1 IC50
Where a name gives a salt, the structure may show the parent alone.
Only the number, expressed in nM, is required.

Prompt: Find the recorded IC50 belonging to COc1ccc(-c2cnc(N3C4CCC3CC(N)C4)c(C#N)c2-c2ccc(C#N)c(F)c2)cc1O (stereo not shown) [Example 81] and report it.
Completion: 671

Prompt: Find the recorded IC50 belonging to O=C(NC1CCOCC1)c1cc(CN[C@@H]2C[C@H]2c2ccc(F)cc2)nc(-c2ccc(-n3cccn3)cc2)n1 [Example 233] and report it.
Completion: 7.2

Prompt: Find the recorded IC50 belonging to O=C(c1cc(CN[C@@H]2C[C@H]2c2ccc(F)cc2)nc(-c2ccc(N3CCOCC3)cc2)n1)N1CCC(F)(F)CC1 [Example 244, hydrochloride] and report it.
Completion: 116

Prompt: Find the recorded IC50 belonging to COc1ccc(-c2c(OC)cc(N3CCC(N)CC3)cc2-c2ccc(C#N)c(F)c2)cc1O [Example 267, trifluoroacetate] and report it.
Completion: 1

Prompt: Find the recorded IC50 belonging to N#Cc1ccc(-c2cc(C(=O)N3C4CCC3CC(N)C4)sc2-c2ccc3cc[nH]c3c2)cc1F (stereo not shown) [Example 200] and report it.
Completion: 0.69

Prompt: Find the recorded IC50 belonging to CC(C)(O)Cc1ccc(-c2c(O)cc(N3CCC(N)CC3)nc2-c2ccc(C#N)c(F)c2)c(F)c1 [Example 32, hydrochloride] and report it.
Completion: 48.8

Prompt: Find the recorded IC50 belonging to COc1ccc(-c2sc(C(=O)N3C4CCC3CC(N)C4)cc2-c2ccc(C#N)c(F)c2)cc1O (stereo not shown) [Example 218] and report it.
Completion: 0.15
